Below, each entry is listed alongside its reported MBEC.
# System: P. aeruginosa strain ATCC 17647
# test name: Minimal Biofilm Eradicating Concentration (MBEC), Calgary Biofilm Device
# Assay type: cell-based, Pseudomonas aeruginosa
# condition notes: 24 h biofilm, 24 h treatment; minimum concentration removing >95% of biofilm biomass (crystal violet)
property measured: MBEC

molecule	result
GN9: Native lysin, GenBank ECJ78460.1, SEQ ID NO: 21 (protein, Marine metagenome) MKNFNEIIEHVLKHEGGYVNDPKDLGGETKYGITKRFYPDLDIKNLTIEQATEIYKKDYWDKNKVESLPQNLWHIYFDMCVNMGKRTAVKVLQRAAVNRGRDIEVDGGLGPATIGALKGVELDRVRAFRVKYYVDLITARPEQEKFYLGWFRRATEV	0.125 µg/mL
GN123: Native lysin, GenBank YP_009217242.1, SEQ ID NO: 27 (protein, Pseudomonas phage PhiPA3) MTLLKKGDKGDAVKQLQQKLKDLGYTLGVDGNFGNGTDTVVRSFQTKMKLSVDGVVGNGTMSTIDSTLAGIKAWKTSVPFPATNKSRAMAMPTLTEIGRLTNVDPKLLATFCSIESAFDYTAKPYKPDGTVYSSAEGWFQFLDATWDDEVRKHGKQYSFPVDPGRSLRKDPRANGLMGAEFLKGNAAILRPVLGHEPSDTDLYLAHFMGAGGAKQFLMADQNKLAAELFPGPAKANPNIFYKSGNIARTLAEVYAVLDAKVAKHRA	4 µg/mL
GN121: Modified GN37, C-terminal peptide RKKTRKRLKKIGKVLKWI, SEQ ID NO: 13 (protein) MTYTLSKRSLDNLKGVHPDLVAVVHRAIQLTPVDFAVIEGLRSVSRQKELVAAGASKTMNSRHLTGHAVDLAAYVNGIRWDWPLYDAIAVAVKAAAKELGVAIVWGGDWTTFKDGPHFELDRSKYRRKKTRKRLKKIGKVLKWI	0.25 µg/mL
GN150: Native lysin, WP_034684053.1/VanY, SEQ ID NO: 19 (protein, listed as Acinetobacter sp.) MSFKLGKRSLSNLEGVHPDLIKVVKRAIELTECDFTVTEGLRSKERQAQLLKEKKTTTSNSRHLTGHAVDLAAWVNNTVSWDWKYYYQIADAMKKAASELNVSIDWGGDWKKFKDGPHFELTWSKYPIKGAS	0.25 µg/mL
GN94: Modified GN37, N-terminal peptide KFFKFFKFFK with linker, SEQ ID NO: 14 (protein) KFFKFFKFFKAGAGAGAGAGAGAGAGASMTYTLSKRSLDNLKGVHPDLVAVVHRAIQLTPVDFAVIEGLRSVSRQKELVAAGASKTMNSRHLTGHAVDLAAYVNGIRWDWPLYDAIAVAVKAAAKELGVAIVWGGDWTTFKDGPHFELDRSKYR	2 µg/mL
GN17: Native lysin, GenBank ACD38663.1, SEQ ID NO: 24 (protein, listed as Pseudomonas aeruginosa) MTLRYGDRSQEVRQLQRRLNTWAGANLYEDGHFGAATEDAVRAFQRSHGLVADGIAGPKTLAALGGADCSHLLQNADLVAAATRLGLPLATIYAVNQVESNGQGFLGNGKPAILFERHIMYRRLAAHDQVTADQLAAQFPALVNPRPGGYAGGTAEHQRLANARQIDDTAALESASWGAFQIMGFHWQRLGYISVQAFAEAMGRSESAQFEAFVRFIDTDPALHKALKARKWADFARLYNGPDYKRNLYDNKLARAYEQHANCAEASA	0.125 µg/mL
GN4: Native lysin, YP_002284361.1/Lysozyme, SEQ ID NO: 3; first disclosed in WO/2017/049233 (protein, Pseudomonas phage PAJU2) MRTSQRGIDLIKSFEGLRLSAYQDSVGVWTIGYGTTRGVTRYMTITVEQAERMLSNDIQRFEPELDRLAKVPLNQNQWDALMSFVYNLGAANLASSTLLKLLNKGDYQGAADQFPRWVNAGGKRLDGLVKRRAAERALFLEPLS	1 µg/mL
GN156: Modified GN4, addition of N-terminal peptide GPRRPRRPGRRAPV, SEQ ID NO: 6 (protein) GPRRPRRPGRRAPVMRTSQRGIDLIKSFEGLRLSAYQDSVGVWTIGYGTTRGVTRYMTITVEQAERMLSNDIQRFEPELDRLAKVPLNQNQWDALMSFVYNLGAANLASSTLLKLLNKGDYQGAADQFPRWVNAGGKRLDGLVKRRAAERALFLEPLS	0.5 µg/mL
GN10: Native lysin, GenBank YP_002600773.1, SEQ ID NO: 22 (protein, Pseudomonas phage phi2954) MSKQGGVKVAQAVAALSSPGLKIDGIVGKATRAAVSSMPSSQKAATDKILQSAGIGSLDSLLAEPAAATSDTFREVVLAVAREARKRGLNPAFYVAHIALETGWGRSVPKLPDGRSSYNYAGLKYAAVKTQVKGKTETNTLEYIKSLPKTVRDSFAVFASAGDFSRVYFWYLLDSPSAYRYPGLKNAKTAQEFGDILQKGGYATDPAYAAKVASIASTAVARYGSDVSSVA	0.5 µg/mL

Data provenance is patent US20220160843A1.
